// data source = PubChem BioAssay (NCI)

# Test system: UACC-257 melanoma
# assay.summary: NCI-60 one-dose screen, 48 h (100 = growth as untreated, 0 = no growth, -100 = all killed)
# condition.set: 10 µM
The panel holds about 83,000 compounds, 20% with a hit somewhere; the sample as a whole holds those more often.
measured.endpoint: growth (%)
One number for each entry, in %.

• COC(=O)Nc1nc2ccc(C(=O)c3cccs3)cc2[nH]1 = 56
• O=S(=O)(O)c1ccc(O)c2ccccc12 = 112
• O=C(O)c1cc([N+](=O)[O-])ccc1Cl = 99.5
• O=[N+]([O-])c1ccc(Sc2ccncn2)c([N+](=O)[O-])c1 = 64.7

Now for a further compound.
Param readout= growth; system= UACC-257 melanoma; entry= `Cc1c(C(=O)O)c(=O)n(-c2ccccc2)n1C` ; returns value.
93.8
